Recorded growth inhibition for the following compounds
# Assay Overview: NCI Yeast Anticancer Drug Screen. Data for the mlh1 rad18 strain (AID 175)
# Condition Details: S. cerevisiae mlh1 rad18 strain growth inhibition; at 50.0 µM; hits give high values
About 79,000 compounds went through this panel and 15% of them were active in at least one assay; those are over-represented in the sample as a whole.
Test Readout: growth inhibition (%)

>>> measured("CC1CNC(=S)SSC(=S)N1 (centres undefined)")
27.7
>>> measured("Oc1ccc(-c2cc(-c3cc(-c4ccc(O)cc4)no3)on2)cc1")
-7.1
>>> measured("COC(=O)[C@]1(C)CCC[C@]2(C)C3=C[C@@H](O)[C@@]4(C(C)C)O[C@H]4[C@]3(O)CC[C@@H]12")
-26.6
>>> measured("CO/N=C1\\C(O)CC2C(C)(CCC3C2(C)CCC2(C)C4CC(C)(C)CCC4(C)CCC32C)C1C (centres undefined)")
-5.85
>>> measured("COc1cc2c(cc1OC)C1Cc3ccc(OC)c(OC)c3C[N+]1([O-])CC2 (centres undefined)")
-3.2
>>> measured("COc1ccc(C(=O)CC(Sc2ccccc2N)c2ccc(OC)cc2)cc1 (centres undefined)")
-7.3
>>> measured("CCN(CC)Cc1ccccc1COC(=O)/C=C/c1ccccc1")
13.9
>>> measured("COCN1COCN(C)C1=O")
9.1
>>> measured("COc1cc(OC)c2c(=O)cc(-c3ccc(OC)c(OC)c3OC)oc2c1")
-40.5
>>> measured("CC12CCC(CC1)C(C)(C)N=C(N)S2")
-20
>>> measured("O=C(O)/C(=C\\c1ccccc1[N+](=O)[O-])c1ccccc1")
47.4
>>> measured("C=C(Cl)/C(=C\\Cl)CCC(Cl)C(C)C (centres undefined)")
4.25
>>> measured("CCCCCCCCCCCCCCCCCCN=C(N)N")
10.8
>>> measured("CC(=O)OCC/C=C\\CCCOC(C)=O")
3.65
>>> measured("CCCCCCSCCO")
2.55
>>> measured("Cc1nc(N)sc1C(=O)/C=C\\c1ccc2c(c1)OCO2")
35.4
>>> measured("O=C(c1ccc(F)cc1)c1c[nH]c(=O)[nH]c1=O")
-33.2
>>> measured("CC(CCc1nc2ccccc2[nH]1)c1nc2ccccc2[nH]1 (centres undefined)")
17.4
>>> measured("COc1ccccc1N=NNc1ccc(S(=O)(=O)NC(C)=O)cc1")
0.55
>>> measured("COc1cc2nc(Sc3c([N+](=O)[O-])ncn3C)[nH]c2cc1OC")
-46
>>> measured("O=S(=O)(Oc1ccc(-c2ccccc2)cc1Br)c1ccccc1")
-5.6
>>> measured("CC(=O)NC1=C(Sc2ccc(Cl)cc2)C(=O)c2ccccc2C1=O")
33.2
>>> measured("CS(=O)(=O)ON1C(=O)c2ccccc2C1=O")
-9.55
>>> measured("Cc1ccc2c(c1)[n+]([O-])c1c3ccccc3[nH]c1[n+]2[O-]")
26.4

* * *

# Assay Overview: NCI Yeast Anticancer Drug Screen. Data for the rad50 strain (AID 155);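 further: 0% = growth of vehicle-only cultures of the same strain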
# Condition Details: S. cerevisiae rad50 strain growth inhibition; at 50.0 µM; hits give high values
The panel holds about 79,000 compounds, 15% with a hit somewhere; the sample as a whole holds those more often.
Recorded growth inhibition for the following compounds
Test Readout: growth inhibition (%)

>>> measured("CCOC(=O)COc1cc2c(cc1Cc1ccc(OC)cc1)OCO2")
-5.4
>>> measured("CC1=NN(C(=O)CC(=O)Nc2ccccc2C)C(=O)C1N=Nc1ccc(S(=O)(=O)c2ccc(N=NC3C(=O)N(C(=O)CC(=O)Nc4ccccc4C)N=C3C)cc2)cc1 (configuration not stated)")
41.6
>>> measured("Cn1cc(S(=O)(=O)NC(=O)Nc2ccc(Cl)cc2)c(=O)c2ccc(Cl)cc21")
21.6
>>> measured("N#C/C(=C\\c1ccc(Cl)cc1)C(=O)N/N=C/c1ccc(Cl)cc1")
24.6
>>> measured("CN(C)CCCN1c2ccccc2Sc2cnccc21")
7.6
>>> measured("Nc1nc(=S)c2ncn(C3OC(COC(=O)c4ccc([N+](=O)[O-])cc4)C(OC(=O)c4ccc([N+](=O)[O-])cc4)C3OC(=O)c3ccc([N+](=O)[O-])cc3)c2[nH]1 (configuration not stated)")
3.35
>>> measured("Cc1ccc(-c2nc3ccccc3cc2N)cc1")
5.85
>>> measured("Oc1ccccc1C=Nc1ccccc1")
29
>>> measured("N#CCCCCC12C3C(=O)N(c4ccccc4)C(=O)C3ON1O[C@@H]1C(=O)N(c3ccccc3)C(=O)[C@@H]12 (some centres not stated)")
43.4
>>> measured("Cc1nn(C)c2ncnc(N)c12")
10.8
>>> measured("O=C1Nc2ccccc2CS1")
0.55
>>> measured("CCOC(=O)Cn1c(C)nc2nn(Cc3ccccc3)cc2c1=O")
-49.7
>>> measured("Cc1cccc2c1CCC21OC(=O)c2c1ccc1ccccc21 (configuration not stated)")
10.9
>>> measured("CCOC(=O)C1=C(C(=O)c2ccc(C)cc2)C(c2c(Cl)cccc2Cl)C(C(=O)c2ccc(C)cc2)=C(C(=O)OCC)N1")
18.4
>>> measured("CN(C)Cc1ccccc1COC(=O)c1ccccc1")
19.1
>>> measured("CCN(CC)c1nc2c(c(=O)n(C)c(=O)n2C)n1CCCNCC(O)c1ccc(O)c(O)c1 (configuration not stated)")
-15.7
>>> measured("O=Cc1cc2c(cc1Br)OCO2")
39.7
>>> measured("Cc1ccc(N2CCN(C(=O)c3ccccc3)CC2)cc1")
-16.9
>>> measured("CC1(C)C(=O)C(=Cc2ccco2)C1=O")
-18.9
>>> measured("CCOC(=O)NC(=Cc1ccccn1)c1ccc(Cl)cc1 (mixture of isomers)")
7.7
>>> measured("CCOC(=O)C(=CNc1ccc(S(N)(=O)=O)cc1)C(=O)OCC")
13.7
>>> measured("CC(NC(=O)OCc1ccccc1)NC(=O)OC(C)(C)C (configuration not stated)")
-47

* * *

Recorded growth inhibition for the following molecules
# Assay Overview: NCI Yeast Anticancer Drug Screen. Data for the bub3 strain (AID 167)
# Condition Details: S. cerevisiae bub3 mutant strain, at 50.0 µM, hits give high values
Compounds without any hit were thinned out: in the full panel of roughly 79,000, 15% have a hit.
Test Readout: growth inhibition (%)

>>> measured("O=c1oc2ccc3ccccc3c2c2c1CCCCC2")
-8.05
>>> measured("CC1CC([NH-])C([NH-])C(C)(C)C1.[Cl][Pt+2][Cl] (centres undefined)")
-10.8
>>> measured("CC(=O)OC1CC2C=CC1C2 (centres undefined)")
15.4
>>> measured("O=C(Nc1cccc2ccccc12)OCCBr")
-10.2
>>> measured("CC(=O)/C=C/c1ccc(C)cc1")
20.6
>>> measured("CCOC(=O)C1(C(O)(C2CC2)C2(C(=O)OCC)CC2)CC1")
13.1
>>> measured("C[C@H](CCC(=O)O[C@@H]1CC[C@@]2(C)C(CC[C@H]3[C@@H]4CC[C@H]([C@H](C)CCc5nc6ccccc6[nH]5)[C@@]4(C)CC[C@@H]32)C1)[C@H]1CC[C@H]2[C@@H]3CCC4C[C@H](O)CC[C@]4(C)[C@H]3CC[C@]12C (some centres undefined)")
6.2
>>> measured("Cc1cc(Br)c2c(c1N)C(=O)c1ccccc1C2=O")
7.1
>>> measured("Cc1ccc2c(c1)NC(C1Nc3cc(C)ccc3O1)O2 (centres undefined)")
-16.9
>>> measured("c1ccc(CN(CCNc2ccccc2)c2ccccc2)cc1")
50.6
>>> measured("O=[N+]([O-])c1ccc2nc(-c3ccccn3)c(-c3ccccn3)nc2c1")
47.5
>>> measured("O=C(O)CSCC(=O)c1ccccc1")
-53.4
>>> measured("CC1=NC(C(=O)O)CC1C (centres undefined)")
1.45
>>> measured("Cc1cncc(C)c1P(=O)(O)O")
3.55
>>> measured("COc1cc([N+](=O)[O-])ccc1NC(=O)C(Br)C(Br)C(=O)O (centres undefined)")
-0.35
>>> measured("S=C1N=C(Cl)C2(NN1)c1ccccc1-c1ccccc12")
-11.7
>>> measured("O=C(/C=C/c1cccs1)c1ccc(Cl)cc1")
2.2
>>> measured("O=C(O)COc1ccccc1/C=C1/SC(=S)N(c2ccccc2)C1=O")
0.55
>>> measured("NC(=O)/C=C/c1ccc([N+](=O)[O-])cc1")
4.6
>>> measured("CC(=O)Nc1c(OC(C)=O)ccc2cc(Br)ccc12")
-0.25
>>> measured("CCOC(=O)c1c(O)c(Cc2ccccc2)c(=O)n2c1[nH]c1cc(C)c(C)cc12")
-0.95
>>> measured("CC(=O)OCCOCNC(=S)N/N=C/c1cc([N+](=O)[O-])ccc1O")
10.7
>>> measured("Cc1ccc(I)cc1")
-2.9
>>> measured("CCOP(=O)(OCC)c1c(C(=O)OC)cc(=O)[nH]c1-c1ccc(C)cc1")
53.7
